Biological target: HLA-A*01:01
Assay: IEDB peptide-MHC binding, purified MHC/competitive/fluorescence; bounds were set here for any values at or beyond the usual limits of such assays
Conditions: source organism: Homo sapiens
measured-property: IC50

Returns the measured IC50 for the input sequence. Input: MVRVLTVIKEY
≥ 20 µM

* * *

Target: HLA-A*02:11
Assay: IEDB peptide-MHC binding, purified MHC/competitive/fluorescence; filed as Kd, often an IC50 or EC50 that approximates it; bounds were set here for any values at or beyond the usual limits of such assays
Settings: source organism: Bacillus anthracis str. A0488
pKd: −log10 of the molar value.
measured-property: pKd

Returns the measured pKd for the input sequence. Input: IQKGMFVVK
≤ 4.70

* * *

Target: HLA-C*04:01
Experiment: IEDB peptide-MHC binding, purified MHC/direct/fluorescence; filed as Kd, often an IC50 or EC50 that approximates it; bounds were set here for any values at or beyond the usual limits of such assays
Details: source organism: Influenza A virus (A/turkey/Ohio/313053/2004(H3N2))
measured-property: Kd

Returns the measured Kd for the input sequence. Input: RYSGFVRTL
≥ 20 µM

* * *

Target: HLA-A*02:19
Experiment: IEDB peptide-MHC binding, purified MHC/direct/fluorescence; filed as Kd, often an IC50 or EC50 that approximates it; bounds were set here for any values at or beyond the usual limits of such assays
Details: source organism: Limestone Canyon virus
measured-property: Kd

Returns the measured Kd for the input sequence. Input: KLKKKSAFY
≥ 20 µM

* * *

Target: HLA-A*02:03
Assay: IEDB peptide-MHC binding, purified MHC/competitive/fluorescence; filed as Kd, often an IC50 or EC50 that approximates it; bounds were set here for any values at or beyond the usual limits of such assays
Details: source organism: Escherichia coli 536
measured-property: Kd

Look up Kd with HLA-A*02:03 for this sequence: QTDNDIWFW
≥ 20 µM

* * *

Target: HLA-A*68:01
Test: IEDB peptide-MHC binding, purified MHC/competitive/radioactivity; filed as Kd, often an IC50 or EC50 that approximates it; bounds were set here for any values at or beyond the usual limits of such assays
Settings: source organism: Vaccinia virus
measured-property: Kd
// return the numeric value with its unit appended

Returns the measured Kd for the input sequence. Input: VTSSGTIYK
16.8 nM

* * *

Molecular target: HLA-B*27:20
Test: IEDB peptide-MHC binding, purified MHC/competitive/fluorescence; filed as Kd, often an IC50 or EC50 that approximates it; bounds were set here for any values at or beyond the usual limits of such assays
Conditions: source organism: Escherichia coli 536
measured-property: pKd
A value of pKd is the negative decimal logarithm of a concentration given in moles per litre.

1. RQRAVRMVL    8.80

Returns the measured pKd for the input sequence. Input: KEMGFSPRL
6.76

* * *

Molecular target: HLA-B*58:01
Assay: IEDB peptide-MHC binding, purified MHC/competitive/fluorescence; bounds were set here for any values at or beyond the usual limits of such assays
Settings: source organism: Homo sapiens
measured-property: IC50

Returns the measured IC50 for the input sequence. Input: MVRVLTVIKEY
≥ 20 µM

* * *

Molecular target: HLA-B*15:01
Assay: IEDB peptide-MHC binding, purified MHC/competitive/fluorescence; filed as Kd, often an IC50 or EC50 that approximates it; bounds were set here for any values at or beyond the usual limits of such assays
Conditions: source organism: Zaire ebolavirus
measured-property: Kd

Returns the measured Kd for the input sequence. Input: AFHQLVQVI
≥ 20 µM
